Measured optical density, listed per entry for reference.
Target: T1, biotinylated goat anti-human kappa light chain
T1 construct: positive control of the ELISA
Assay: ELISA, positive control; note: test concentration or dose not given here

{"columns": ["binder", "optical density [OD]"],
 "data": [
  ["374_F06 (antibody, V domains shown, Group III) VH: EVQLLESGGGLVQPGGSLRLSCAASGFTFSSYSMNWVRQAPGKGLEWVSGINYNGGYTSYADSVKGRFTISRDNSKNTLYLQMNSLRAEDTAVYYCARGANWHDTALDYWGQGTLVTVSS VL: DIQMTQSPSSLSASVGDRVTITCRASQSIISYVNWYQQKPGKAPKLVIYAATSLHSGVPSRFSGSGSGTDFTLTISSLQPEDFATYYCQQSYSTPLTFGGGTKVEIK", 3.18],
  ["374_G08 (antibody, V domains shown, Group III) VH: EVQLLESGGGLVQPGGSLRLSCAASGFTFDSYSMNWVRQAPGKGLEWVSGINYNGGYTSYADSVKGRFTISRDNSKNTLYLQMNSLRAEDTAVYYCARGANWHDTALDYWGQGTLVTVSS VL: DIQMTQSPSSLSASVGDRVTITCRASQSILTYVNWYQQKPGKAPKLVIYAATSRASGVPSRFSGSGSGTDFTLTISSLQPEDFATYYCQQSYDSPLTFGGGTKVEIK", 3.21]
]}

Entry source: patent US20210380703A1
